Data provenance is patent US8034797B2.

# measurement.notes: Solubility in water
# Assay type: physicochemical
# reported.conditions: water, recrystallisation from water; read-out: Solubility (converted)
assay.readout: solubility (mg/mL)
Express the result in mg/mL but write the number alone.

The molecule CN(C)N=Nc1ccc(C(=O)c2ccc(OCC(=O)[O-])cc2)cc1.[Na+] showed solubility equal to 40
